Assay: melting temperature; fluorescence melt of hairpins on a sequencing array, two-state fit, raised by 9.35 °C to match UV melts
Conditions: sodium 0.088 M
Rule: measured Tm below 40 °C gets t; anything equal to or greater than 40 °C gets f.

| biopolymer-sequence | class-name |
| --- | --- |
| GTAAGAGGAAACTCTCAC ((.((((....)))).)) | t |
| GCCTGCGAAAGCACGGC ((((((....))).))) | f |
| GCAACGCGAAAGCTTGGC ((.(.((....)).).)) | t |
| GATCCTTGAGAGGATC ((((((....)))))) | f |
| GCTAAGCGAAAGCCTGGC ((.(.((....)).).)) | t |
| GCCCTAGGAAACTAGGAC (.(((((....))))).) | t |
| GCAGACGGAAACGTCCAC (..((((....))))..) | t |
| GATCTCGGAAGAGATC ((((((....)))))) | f |
| GAGCAGCGAAAGCTTCTC (((.(((....))).))) | f |
| GTGACGCCGAAAGGCCAC (((..(((....)))))) | f |
| CGATCACGGAAACGTTCG (((..(((....)))))) | t |
| GATCAAGCCTTTGATC ((((((....)))))) | f |
| GGCCTGGCGAAAGCCGCC (((..(((....)))))) | f |
